Values compiled from patent US20250339399A1.

Assay: Binary supramolecular self-assembly systems of polymer and target: guest concentration over incubation time (Comparative Example 2)
Format: physicochemical
Conditions: binary system with 0.5% polymer 107; incubation 3 h
measurement name: Concentration of the target in the solution measured after different incubation time (ng/mL)
Provide only the numeric value, understood in ng/mL.

Worked examples, 3 molecules total:
>>> value_measured("CCOc1nc2cccc(C(=O)OC(C)OC(=O)OC3CCCCC3)c2n1Cc1ccc(-c2ccccc2-c2nnn[nH]2)cc1 (stereo not shown) [Candesartan Cilexetil, candesartan cilexetil]")
33700
>>> value_measured("CCc1cc2c(cc1N1CCC(N3CCOCC3)CC1)C(C)(C)c1[nH]c3cc(C#N)ccc3c1C2=O [Alectinib, alectinib]")
800
>>> value_measured("O=C1C[C@@H](c2ccc(O)cc2)Oc2cc(O)cc(O)c21 [Naringenin]")
130900

Let us examine a further case.
For CCC(C)n1ncn(-c2ccc(N3CCN(c4ccc(OCC5COC(Cn6cncn6)(c6ccc(Cl)cc6Cl)O5)cc4)CC3)cc2)c1=O (stereo not shown) [Itraconazole, itraconazole] , what is its reported Concentration of the target in the solution measured after different incubation time?
1700
